Experiment: Thermocycling of the monofumarate salt (Experiment Reference 9)
Assay type: physicochemical
Conditions: tabernanthalog monofumarate salt thermocycled between 20° C. and peak T (75% of solvent b.p.); solvent, input and number of cycles per sample reference
MEASURED_METRIC: XRPD crystallinity (oven dried) (%)
// note: answer is a bare numeric in %

Please review the entries below; each comes with its answer.
Look up XRPD crystallinity (oven dried) for this compound: COc1ccc2c3c([nH]c2c1)CCN(C)CC3.O=C(O)/C=C/C(=O)O [Pattern 9-G] 81.1

Look up XRPD crystallinity (oven dried) for this compound: COc1ccc2c3c([nH]c2c1)CCN(C)CC3.O=C(O)/C=C/C(=O)O [Pattern 9-B] 73.6

Look up XRPD crystallinity (oven dried) for this compound: COc1ccc2c3c([nH]c2c1)CCN(C)CC3.O=C(O)/C=C/C(=O)O [Pattern 9-A] 82.1

Look up XRPD crystallinity (oven dried) for this compound: COc1ccc2c3c([nH]c2c1)CCN(C)CC3.O=C(O)/C=C/C(=O)O [Pattern 9-D] 74.5

---
Look up XRPD crystallinity (oven dried) for this compound: COc1ccc2c3c([nH]c2c1)CCN(C)CC3.O=C(O)/C=C/C(=O)O [Pattern 9-E] 77.1

Look up XRPD crystallinity (oven dried) for this compound: COc1ccc2c3c([nH]c2c1)CCN(C)CC3.O=C(O)/C=C/C(=O)O [Pattern 9-C] 72.8

Look up XRPD crystallinity (oven dried) for this compound: COc1ccc2c3c([nH]c2c1)CCN(C)CC3.O=C(O)/C=C/C(=O)O [Pattern 9-F] 82.3

----------
Assay: Solubility determinations in SIF buffers FaSSIF, FeSSIF, FaSSGF (Example 8, Experiment 5)
Conditions: 37 °C, pH 6.5, fassif, thermodynamic from solid
MEASURED_METRIC: solubility at 1 h

Look up solubility at 1 h for this compound: COc1ccc2c3c([nH]c2c1)CCN(C)CC3 [Tabernanthalog• Sorbate] > 30 mg/mL

----------
Property: melt enthalpy; scope: individual compounds
Assay: Examination of variability of fusion temperature of sorbate Form A (DSC)
Assay type: physicochemical
Conditions: DSC 25-220° C. at 10° C. min^−1; batches of sorbate salt Form A

Please review the entries below; each comes with its answer.
Look up melt enthalpy for this compound: C/C=C/C=C/C(=O)O.COc1ccc2c3c([nH]c2c1)CCN(C)CC3 [Experiment 6-Sample E1] −105.7 Jg^−1

Look up melt enthalpy for this compound: C/C=C/C=C/C(=O)O.COc1ccc2c3c([nH]c2c1)CCN(C)CC3 [Pattern A1270-20-V2] −84.1 Jg^−1

Look up melt enthalpy for this compound: C/C=C/C=C/C(=O)O.COc1ccc2c3c([nH]c2c1)CCN(C)CC3 [Experiment 7-Sample A neat] −122.5 Jg^−1

Look up melt enthalpy for this compound: C/C=C/C=C/C(=O)O.COc1ccc2c3c([nH]c2c1)CCN(C)CC3 [Experiment 6-Sample C1] −100.5 Jg^−1

Now examine the next entry.
Look up melt enthalpy for this compound: C/C=C/C=C/C(=O)O.COc1ccc2c3c([nH]c2c1)CCN(C)CC3 [Experiment 6-Sample D1] −105.7 Jg^−1

----------
Experiment: Examination of variability of fusion temperature of sorbate Form A (DSC)
Assay type: physicochemical
Conditions: DSC melt endset, 25 to 220C at 10° C. min−1; tabernanthalog sorbate Form A samples
MEASURED_METRIC: Endset (°C)
// note: answer is a bare numeric in °C

Look up Endset for this compound: C/C=C/C=C/C(=O)O.COc1ccc2c3c([nH]c2c1)CCN(C)CC3 [Experiment 6-Sample C1] 151.02

Look up Endset for this compound: C/C=C/C=C/C(=O)O.COc1ccc2c3c([nH]c2c1)CCN(C)CC3 [Experiment 6-Sample D1] 150.17

Look up Endset for this compound: C/C=C/C=C/C(=O)O.COc1ccc2c3c([nH]c2c1)CCN(C)CC3 [Experiment 6-Sample E1] 151.59

Look up Endset for this compound: C/C=C/C=C/C(=O)O.COc1ccc2c3c([nH]c2c1)CCN(C)CC3 [Experiment 7-Sample A neat] 148.53

Look up Endset for this compound: C/C=C/C=C/C(=O)O.COc1ccc2c3c([nH]c2c1)CCN(C)CC3 [Pattern A1270-20-V2] 151.95
